Recorded remaining at 12 h values for a group of compounds are listed next.
- Experimental Protocol: Metabolic stability in rat liver homogenate assessed as recovery measured after 12 hrs
- Format: ADME, tissue-based
- Applied Conditions: read-out: Drug recovery
Property: remaining at 12 h (%)

[
  {
    "Smiles Repr": "COc1ccc(Nc2c(-c3c(Cl)cc(Cl)cc3Cl)nc3ccc4ccccc4n23)cc1Cl",
    "Test Value": 32.2
  },
  {
    "Smiles Repr": "COc1ccc(Nc2c(-c3ccoc3)nc3ccccn23)cc1Cl",
    "Test Value": 95.8
  },
  {
    "Smiles Repr": "COc1ccc(Nc2c(C3CCCCC3)nc3ccccn23)cc1Cl",
    "Test Value": 91.1
  },
  {
    "Smiles Repr": "CCOC(=O)c1ccc(NC2CCCCC2)c(N)c1",
    "Test Value": 7.1
  }
]

---

- Experimental Protocol: Plasma stability in human plasma assessed as half life
- Type: ADME, cell-free
Property: half-life

[
  {
    "Smiles Repr": "COc1ccc(Nc2c(C3CCCCC3)nc3ccccn23)cc1Cl",
    "Test Value": "> 12 h"
  },
  {
    "Smiles Repr": "CCOC(=O)c1ccc(NC2CCCCC2)c(N)c1",
    "Test Value": "> 12 h"
  },
  {
    "Smiles Repr": "COc1ccc(Nc2c(-c3ccoc3)nc3ccccn23)cc1Cl",
    "Test Value": "> 12 h"
  },
  {
    "Smiles Repr": "COc1ccc(Nc2c(-c3c(Cl)cc(Cl)cc3Cl)nc3ccc4ccccc4n23)cc1Cl",
    "Test Value": "< 0.08 h"
  }
]

---

Recorded half-life values for a group of compounds are listed next.
- Experimental Protocol: Plasma stability in rat plasma assessed as half life
- Assay type: ADME, cell-free

[
  {
    "Smiles Repr": "COc1ccc(Nc2c(C3CCCCC3)nc3ccccn23)cc1Cl",
    "half-life": "> 12 h"
  },
  {
    "Smiles Repr": "COc1ccc(Nc2c(-c3c(Cl)cc(Cl)cc3Cl)nc3ccc4ccccc4n23)cc1Cl",
    "half-life": "< 0.08 h"
  },
  {
    "Smiles Repr": "CCOC(=O)c1ccc(NC2CCCCC2)c(N)c1",
    "half-life": "2.1 h"
  },
  {
    "Smiles Repr": "COc1ccc(Nc2c(-c3ccoc3)nc3ccccn23)cc1Cl",
    "half-life": "> 12 h"
  }
]

---

- Experimental Protocol: Metabolic stability in rat liver homogenate assessed as half life
- Assay type: ADME, tissue-based

[
  {
    "Smiles Repr": "COc1ccc(Nc2c(-c3c(Cl)cc(Cl)cc3Cl)nc3ccc4ccccc4n23)cc1Cl",
    "half-life": "< 4.8 min"
  },
  {
    "Smiles Repr": "COc1ccc(Nc2c(C3CCCCC3)nc3ccccn23)cc1Cl",
    "half-life": "> 720 min"
  },
  {
    "Smiles Repr": "CCOC(=O)c1ccc(NC2CCCCC2)c(N)c1",
    "half-life": "40.2 min"
  },
  {
    "Smiles Repr": "COc1ccc(Nc2c(-c3ccoc3)nc3ccccn23)cc1Cl",
    "half-life": "> 720 min"
  }
]

---

Recorded remaining at 12 h values for a group of compounds are listed next.
- Experimental Protocol: Plasma stability in human plasma assessed as recovery measured after 12 hrs
- Type: ADME, cell-free
- Applied Conditions: read-out: Drug recovery

[
  {
    "Smiles Repr": "COc1ccc(Nc2c(-c3ccoc3)nc3ccccn23)cc1Cl",
    "Quantity Unit": "%",
    "remaining at 12 h": 100
  },
  {
    "Smiles Repr": "COc1ccc(Nc2c(C3CCCCC3)nc3ccccn23)cc1Cl",
    "Quantity Unit": "%",
    "remaining at 12 h": 100
  },
  {
    "Smiles Repr": "CCOC(=O)c1ccc(NC2CCCCC2)c(N)c1",
    "Quantity Unit": "%",
    "remaining at 12 h": 94.1
  },
  {
    "Smiles Repr": "COc1ccc(Nc2c(-c3c(Cl)cc(Cl)cc3Cl)nc3ccc4ccccc4n23)cc1Cl",
    "Quantity Unit": "%",
    "remaining at 12 h": 47.9
  }
]

---

- Test system: SH-SY5Y
- Experimental Protocol: Anti-ferroptosis activity against RSL3-induced ferroptosis in human SH-SY5Y cells assessed as reversal of ferroptosis by measuring cell viability measured after 48 hrs by MTT assay
- Assay type: functional, cell-based
IC50 strictly under 0.9 µM means condition met; at 0.9 µM or over means condition not met.

[
  {
    "Smiles Repr": "Oc1ccccc1-c1cccn2c(Cc3ccccc3)c(-c3ccccc3)nc12",
    "Class Label": "condition not met"
  },
  {
    "Smiles Repr": "Cc1ccccc1-c1cn2ccccc2n1",
    "Class Label": "condition not met"
  },
  {
    "Smiles Repr": "COc1ccc(-c2nc3ccccn3c2NC(C)(C)C)cc1",
    "Class Label": "condition not met"
  },
  {
    "Smiles Repr": "Cc1cn2cccc(-c3ccccc3O)c2n1",
    "Class Label": "condition not met"
  },
  {
    "Smiles Repr": "COc1ccc(-c2nc3ccccn3c2NC23C[C@H]4C[C@@H](C2)C[C@@H](C3)C4)cc1",
    "Class Label": "condition not met"
  },
  {
    "Smiles Repr": "COc1ccc(Nc2c(-c3ccoc3)nc3ccccn23)cc1Cl",
    "Class Label": "condition met"
  },
  {
    "Smiles Repr": "c1ccn2c(NC34C[C@H]5C[C@@H](C3)C[C@@H](C4)C5)c(-c3cscn3)nc2c1",
    "Class Label": "condition not met"
  },
  {
    "Smiles Repr": "Oc1ccccc1-c1nc2ccccn2c1Cc1ccccc1",
    "Class Label": "condition not met"
  },
  {
    "Smiles Repr": "CCOC(=O)c1ccc(NC2CCCCC2)c(N)c1",
    "Class Label": "condition met"
  },
  {
    "Smiles Repr": "COc1ccc(-c2nc3ccccn3c2NC2CCCCC2)cc1",
    "Class Label": "condition not met"
  }
]

---

- Experimental Protocol: Plasma stability in rat plasma assessed as recovery measured after 12 hrs
- Type: ADME, cell-free
- Applied Conditions: read-out: Drug recovery
Recorded remaining at 12 h values for a group of molecules are listed next.

[
  {
    "Smiles Repr": "CCOC(=O)c1ccc(NC2CCCCC2)c(N)c1",
    "Quantity Unit": "%",
    "remaining at 12 h": 0
  },
  {
    "Smiles Repr": "COc1ccc(Nc2c(C3CCCCC3)nc3ccccn23)cc1Cl",
    "Quantity Unit": "%",
    "remaining at 12 h": 100
  },
  {
    "Smiles Repr": "COc1ccc(Nc2c(-c3c(Cl)cc(Cl)cc3Cl)nc3ccc4ccccc4n23)cc1Cl",
    "Quantity Unit": "%",
    "remaining at 12 h": 42.3
  },
  {
    "Smiles Repr": "COc1ccc(Nc2c(-c3ccoc3)nc3ccccn23)cc1Cl",
    "Quantity Unit": "%",
    "remaining at 12 h": 100
  }
]

---

- System: SH-SY5Y
- Experimental Protocol: Anti-ferroptosis activity against RSL3-induced ferroptosis in human SH-SY5Y cells assessed as reversal of ferroptosis by measuring cell viability measured after 48 hrs by MTT assay
- Assay type: functional, cell-based

[
  {
    "Smiles Repr": "Clc1cccc(-c2nc3ccccn3c2NC23C[C@H]4C[C@@H](C2)C[C@@H](C3)C4)c1",
    "IC50": "> 30 µM"
  },
  {
    "Smiles Repr": "Cc1cn2cccc(-c3ccccc3N)c2n1",
    "IC50": "> 100 µM"
  },
  {
    "Smiles Repr": "Nc1ccccc1-c1cn2ccccc2n1",
    "IC50": "> 10 µM"
  },
  {
    "Smiles Repr": "CC(C)(C)Nc1c(-c2ccoc2)nc2ccccn12",
    "IC50": "> 10 µM"
  }
]

---

Recorded IC50 values for a group of compounds are listed next.
- Test system: SH-SY5Y
- Experimental Protocol: Anti-ferroptosis activity against RSL3-induced ferroptosis in human SH-SY5Y cells assessed as reversal of ferroptosis by measuring cell viability measured after 48 hrs by MTT assay
- Format: functional, cell-based
Property: IC50

[
  {
    "Smiles Repr": "Clc1cc(Cl)cc(CNc2c(-c3ccoc3)nc3ccccn23)c1",
    "Property": "IC50",
    "Test Value": "1.56 µM"
  },
  {
    "Smiles Repr": "COc1ccc(Nc2c(C3CCCCC3)nc3ccc(F)cn23)cc1Cl",
    "Property": "IC50",
    "Test Value": "0.08 µM"
  },
  {
    "Smiles Repr": "Clc1cc(Cl)cc(CNc2c(-c3cc(Cl)cc(Cl)c3)nc3ccccn23)c1",
    "Property": "IC50",
    "Test Value": "1.93 µM"
  },
  {
    "Smiles Repr": "Cc1ccc2nc(-c3ccc(N4CCOCC4)cc3)c(NC3CCCCC3)n2c1",
    "Property": "IC50",
    "Test Value": "> 10 µM"
  },
  {
    "Smiles Repr": "c1coc(CNc2c(-c3cscn3)nc3ccccn23)c1",
    "Property": "IC50",
    "Test Value": "2.64 µM"
  },
  {
    "Smiles Repr": "c1ccn2c(NC34C[C@H]5C[C@@H](C3)C[C@@H](C4)C5)c(C3CCCCC3)nc2c1",
    "Property": "IC50",
    "Test Value": "> 10 µM"
  },
  {
    "Smiles Repr": "COc1ccc(Nc2c(-c3ccsc3)nc3ccccn23)cc1Cl",
    "Property": "IC50",
    "Test Value": "0.476 µM"
  },
  {
    "Smiles Repr": "Cc1ccc2nc(-c3cccc(Cl)c3)c(NC(C)(C)C)n2c1",
    "Property": "IC50",
    "Test Value": "> 10 µM"
  }
]
